target: Rap guanine nucleotide exchange factor 3 (Homo sapiens); assay: Counterscreen qHTS for agonist of cAMP-regulated guanine nucleotide exchange factor 3 (EPAC1) (AID 1645889); settings: EPAC1 Rap1B-BODIPY-GDP exchange, fluorescence; series mostly up to 154 µM; also: % of control where 0% means no effect; nearly all actives have a fitted effect of over 40% in size
Results filed as inconclusive are left out. Active and inactive are the calls of the source. Calls follow the shape of the dose curve; as a rule, active = well fitted activation curve with a large enough effect; inconclusive = small, poorly fitted or top-dose-only effect, or another doubt; inactive = no such curve, though single readings can be large or run the other way.
Measured Property: activation

[
  {
    "Compound": "COc1cccc(C(=O)/C=C/c2ccc(OCC#N)c(OC)c2)c1",
    "Assay Result": "12.6% [at 30.8 µM] (inactive)"
  },
  {
    "Compound": "CC(C)(C)NC(=O)NC(=O)CN1CCN(S(=O)(=O)c2ccc3c(c2)CCCC3)CC1",
    "Assay Result": "6.75% [at 30.8 µM] (inactive)"
  },
  {
    "Compound": "CC(=O)NNC(=O)c1sc(=S)n2c1[nH]c(=O)c1sccc12",
    "Assay Result": "inactive"
  },
  {
    "Compound": "NS(=O)(=O)c1ccc(CCNC(=O)Cc2ccc(S(=O)(=O)N3CCCC3)s2)cc1",
    "Assay Result": "24% [at 30.8 µM] (inactive)"
  },
  {
    "Compound": "C/C(CC(=O)N1CCCC1)=N\\NC(=O)c1cc2ccccc2cc1O",
    "Assay Result": "inactive"
  },
  {
    "Compound": "N=C1S/C(=C\\c2ccco2)C(=O)N1c1ccc2c(c1)OCO2",
    "Assay Result": "inactive"
  },
  {
    "Compound": "CCCCC[C@@H]1C=C(C(=O)O)[C@H](c2ccc(Cl)c(Cl)c2)N1S(=O)(=O)c1ccc(C)cc1",
    "Assay Result": "inactive"
  },
  {
    "Compound": "CCOc1ccc2nc(S(=O)(=O)NC(=O)C3(C)CCN3C(=O)CCc3cccs3)sc2c1 (stereo not given)",
    "Assay Result": "4.36% [at 30.8 µM] (inactive)"
  },
  {
    "Compound": "COc1ccc(OC)c(N2C(=O)[C@@H]3C(c4ccccc4Cl)=NO[C@@H]3C2=O)c1",
    "Assay Result": "inactive"
  },
  {
    "Compound": "O=C(CCCOc1ccccc1)Nc1ccc(Cl)cn1",
    "Assay Result": "inactive"
  }
]

###

Molecular target: Rap guanine nucleotide exchange factor 3 (Homo sapiens) (UniProt O95398)
Sequence (O95398 whole entry, looked up): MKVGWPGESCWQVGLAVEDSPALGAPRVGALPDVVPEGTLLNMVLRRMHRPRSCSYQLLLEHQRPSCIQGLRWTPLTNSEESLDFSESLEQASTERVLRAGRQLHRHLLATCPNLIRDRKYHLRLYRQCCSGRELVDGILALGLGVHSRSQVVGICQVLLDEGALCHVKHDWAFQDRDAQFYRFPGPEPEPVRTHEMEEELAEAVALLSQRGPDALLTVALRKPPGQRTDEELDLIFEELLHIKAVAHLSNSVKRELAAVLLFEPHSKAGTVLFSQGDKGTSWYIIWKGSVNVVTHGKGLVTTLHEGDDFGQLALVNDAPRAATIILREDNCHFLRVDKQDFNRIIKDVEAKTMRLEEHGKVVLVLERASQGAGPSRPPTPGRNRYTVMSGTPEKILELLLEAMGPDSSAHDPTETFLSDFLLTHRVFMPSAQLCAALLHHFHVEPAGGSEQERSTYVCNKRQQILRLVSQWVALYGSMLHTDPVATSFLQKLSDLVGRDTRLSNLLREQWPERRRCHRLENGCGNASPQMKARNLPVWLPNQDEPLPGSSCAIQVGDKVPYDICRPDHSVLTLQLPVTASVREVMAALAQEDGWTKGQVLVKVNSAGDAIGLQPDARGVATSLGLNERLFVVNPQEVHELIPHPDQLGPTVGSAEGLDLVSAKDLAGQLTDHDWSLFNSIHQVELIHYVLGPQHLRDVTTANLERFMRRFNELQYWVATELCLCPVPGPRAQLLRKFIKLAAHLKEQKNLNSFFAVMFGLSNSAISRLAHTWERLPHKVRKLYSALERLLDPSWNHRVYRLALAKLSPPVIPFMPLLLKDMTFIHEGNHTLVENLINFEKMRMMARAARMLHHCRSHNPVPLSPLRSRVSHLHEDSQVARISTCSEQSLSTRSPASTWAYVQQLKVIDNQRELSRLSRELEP
Experiment: Counterscreen qHTS for antagonist of cAMP-regulated guanine nucleotide exchange factor 3 (EPAC1) (AID 1645888);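 also: fluorescence loss as bound BODIPY-GDP is released from Rap1B; % of control where 0% means no effect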
Conditions: Rap1B-BODIPY-GDP nucleotide exchange, fluorescence; series mostly up to 154 µM
From the text: Assay Provider (PI): Xiaodong Cheng Ph.D. The University of Texas Medical Branch, […], TX MLPCN Grant: NS066510 In multi-cellular eukaryotic organisms, the effects of cAMP are transduced by two ubiquitously-expressed intracellular cAMP receptors, the classic protein kinase A/cAMP-dependent protein kinase (PKA/cAPK) and the more recently discovered exchange protein directly activated by cAMP/cAMP-regulated guanine nucleotide exchange factor (EPAC/cAMP-GEF). […]
Inconclusive results are not listed. Activity calls are given as the source filed them. Calls come from the whole dose curve; as a rule, active = well fitted inhibition curve with a large enough effect; inconclusive = small, poorly fitted or top-dose-only effect; inactive = no such curve, though single readings can be large or run the other way.
Measured Property: activity change, negative = inhibition

[
  {
    "Compound": "CSc1ccc(CC2C(=O)Nc3ccccc32)cc1 (stereo not given)",
    "Assay Result": "inactive"
  },
  {
    "Compound": "O=C(O)CSc1nnc(COc2cccc3ccccc23)n1Cc1ccccc1",
    "Assay Result": "inactive"
  },
  {
    "Compound": "CCOC(=O)c1[nH]c2ccc(OCC)cc2c1NC(=O)CN1CCN(c2ccccn2)CC1",
    "Assay Result": "inactive"
  },
  {
    "Compound": "CCn1c(SCC(=O)N/N=C/C=C/c2ccco2)nnc1-c1ccccc1",
    "Assay Result": "inactive"
  },
  {
    "Compound": "CCOC(=O)[C@H](C)N1[C@H](C)[C@H](c2ccccc2)Oc2ccc(Cl)cc2S1(=O)=O",
    "Assay Result": "6.25% [at 30.8 µM] (inactive)"
  }
]
